experimental target: recombinant riboflavin synthase of M. tuberculosis (Mycobacterium tuberculosis, UniProt P9WK35)
Sequence (P9WK35 whole entry): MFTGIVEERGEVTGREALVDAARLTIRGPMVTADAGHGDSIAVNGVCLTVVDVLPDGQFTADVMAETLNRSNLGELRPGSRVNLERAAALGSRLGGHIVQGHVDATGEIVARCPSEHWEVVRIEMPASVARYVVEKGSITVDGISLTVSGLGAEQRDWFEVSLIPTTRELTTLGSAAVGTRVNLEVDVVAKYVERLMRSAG
experimental details: Kinetic assay of riboflavin synthase inhibitors
Type: biochemical
test parameters: RS; fit parameter of the inhibitor's data set
Label scheme for Ks (substrate dissociation constant for E + S ⇌ ES): lower than 8 µM is rule not met, 8 µM and above is rule met.

stdin: Test whether the compound O=C1Nc2ccc(S(=O)(=O)NCCCCOP(=O)(O)O)c3cccc1c23 records Ks (substrate dissociation constant for E + S ⇌ ES) of 8 µM or higher.
stdout: rule not met

stdin: Test whether the compound O=C1Nc2ccc(S(=O)(=O)NCCCOP(=O)(O)O)c3cccc1c23 records Ks (substrate dissociation constant for E + S ⇌ ES) of 8 µM or higher.
stdout: rule not met

stdin: Test whether the compound O=C1Nc2ccc(S(=O)(=O)NCCOP(=O)(O)O)c3cccc1c23 records Ks (substrate dissociation constant for E + S ⇌ ES) of 8 µM or higher.
stdout: rule not met

stdin: Test whether the compound O=C1Nc2ccc(S(=O)(=O)NCCCCCOP(=O)(O)O)c3cccc1c23 records Ks (substrate dissociation constant for E + S ⇌ ES) of 8 µM or higher.
stdout: rule met

----------
experimental target: M. tuberculosis lumazine synthase (Mycobacterium tuberculosis)
Sequence (P9WHE9 whole entry): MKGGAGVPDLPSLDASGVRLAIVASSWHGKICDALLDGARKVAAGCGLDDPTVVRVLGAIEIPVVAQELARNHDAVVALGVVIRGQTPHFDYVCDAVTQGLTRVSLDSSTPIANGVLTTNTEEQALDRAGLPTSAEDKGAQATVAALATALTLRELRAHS
experimental details: biochemical
Type: binding
assay endpoint: Kd (µM)
Report the value in µM with no unit label.

stdin: Reported Kd for O=C1Nc2ccc(S(=O)(=O)NCCCCOP(=O)(O)O)c3cccc1c23 : what is it?
stdout: 130

stdin: Reported Kd for O=C1Nc2ccc(S(=O)(=O)NCCCOP(=O)(O)O)c3cccc1c23 : what is it?
stdout: 112

----------
I'd be grateful if you could share measured Kis (inhibitor dissociation constant for ES + I ⇌ ESI) for these entries.
experimental target: recombinant lumazine synthase of M. tuberculosis (Mycobacterium tuberculosis)
Sequence (P9WHE9 whole entry): as the sequence (P9WHE9 whole entry) above
experimental details: Kinetic assay of lumazine synthase inhibitors
Assay type: biochemical
test parameters: LS; pH 7.0, 27 °C; pyrimidinedione substrate varied
Report the value in µM with no unit label.

stdin: Short answer please: Kis (inhibitor dissociation constant for ES + I ⇌ ESI), recombinant lumazine synthase of M. tuberculosis (Mycobacterium tuberculosis), entry O=C1Nc2ccc(S(=O)(=O)NCCOP(=O)(O)O)c3cccc1c23
stdout: 125

stdin: Short answer please: Kis (inhibitor dissociation constant for ES + I ⇌ ESI), recombinant lumazine synthase of M. tuberculosis (Mycobacterium tuberculosis), entry O=C(O)CNS(=O)(=O)c1ccc2c3c(cccc13)C(=O)N2
stdout: 58

stdin: Short answer please: Kis (inhibitor dissociation constant for ES + I ⇌ ESI), recombinant lumazine synthase of M. tuberculosis (Mycobacterium tuberculosis), entry O=C1Nc2ccc(S(=O)(=O)NCCCCOP(=O)(O)O)c3cccc1c23
stdout: 572

stdin: Short answer please: Kis (inhibitor dissociation constant for ES + I ⇌ ESI), recombinant lumazine synthase of M. tuberculosis (Mycobacterium tuberculosis), entry O=C1Nc2ccc(S(=O)(=O)NCCCCCOP(=O)(O)O)c3cccc1c23
stdout: 563

stdin: Short answer please: Kis (inhibitor dissociation constant for ES + I ⇌ ESI), recombinant lumazine synthase of M. tuberculosis (Mycobacterium tuberculosis), entry O=C1Nc2ccc(S(=O)(=O)NCCCOP(=O)(O)O)c3cccc1c23
stdout: 434

----------
experimental target: recombinant lumazine synthase of M. tuberculosis (Mycobacterium tuberculosis)
experimental details: Kinetic assay of lumazine synthase inhibitors
Type: biochemical
test parameters: LS; most likely inhibition model (DynaFit)
assay endpoint: Mechanism

stdin: Short answer please: Mechanism, recombinant lumazine synthase of M. tuberculosis (Mycobacterium tuberculosis), entry CCOC(=O)C(=O)Nc1c(Cl)[nH]c(=O)[nH]c1=O [Compound 77]
stdout: Mixed

stdin: Short answer please: Mechanism, recombinant lumazine synthase of M. tuberculosis (Mycobacterium tuberculosis), entry O=C1Nc2ccc(S(=O)(=O)NCCCOP(=O)(O)O)c3cccc1c23 [Compound 27]
stdout: Mixed

stdin: Short answer please: Mechanism, recombinant lumazine synthase of M. tuberculosis (Mycobacterium tuberculosis), entry O=C1Nc2ccc(S(=O)(=O)NCCCCOP(=O)(O)O)c3cccc1c23 [Compound 38]
stdout: Mixed
